Target: Human immunodeficiency virus type 1 reverse transcriptase (Human immunodeficiency virus 1, UniProt Q72547)
Experiment: Compound was evaluated for inhibition of HIV-1 reverse transcriptase using rC.dG and [3H]dGTP as substrates at 100 ug/ml
PROPERTY LABEL: IC50

Exercise: // lookup IC50 for CC(=O)Nc1ccc(NC(=O)CCCCC(=O)Nc2ccc(NC(C)=O)cc2C(=O)O)c(C(=O)O)c1
Key: > 100 µM

====

Kindly state pIC50 for each of the entries shown.
Target: Human immunodeficiency virus type 1 reverse transcriptase (Human immunodeficiency virus 1, UniProt Q72547)
Test: Evaluated for inhibition of HIV-1 reverse transcriptase
Numbers only, as −log10 of the molar value.

For each of the molecules below, state pIC50.
1. CSc1ccc(NC(=O)CCCCC(=O)Nc2ccc(SC)cc2C(=O)O)c(C(=O)O)c1
2. O=C(CCCCC(=O)Nc1ccc(Br)cc1C(=O)O)Nc1ccc(Br)cc1
3. Cc1ccc(NC(=O)CCCCC(=O)Nc2ccc(C)cc2C(=O)O)c(C(=O)O)c1
4. COc1ccc(NC(=O)CCCCC(=O)Nc2ccc(OC)cc2C(=O)O)c(C(=O)O)c1
5. O=C(CCCCC(=O)Nc1ccc(Cl)cc1C(=O)O)Nc1ccc(Cl)cc1C(=O)O

Key:
4.72
4.82
4.85
4.97
5.06

For each of the molecules below, state pIC50.
1. O=C(CCCCC(=O)Nc1ccc(Br)cc1C(=O)O)Nc1ccc(Br)cc1C(=O)O
2. O=C(CCCC(=O)Nc1ccc(Cl)cc1C(=O)O)Nc1ccc(Cl)cc1C(=O)O
3. O=C(CCCCCC(=O)Nc1ccc(Cl)cc1C(=O)O)Nc1ccc(Cl)cc1C(=O)O
4. O=C(CCCCC(=O)Nc1ccccc1C(=O)O)Nc1ccccc1C(=O)O
5. O=C(Nc1ccc(Br)cc1C(=O)O)c1ccc(C(=O)Nc2ccc(Br)cc2C(=O)O)nc1
6. O=C(Nc1ccc(Br)cc1C(=O)O)c1ccnc(C(=O)Nc2ccc(Br)cc2C(=O)O)c1

Key:
1. 5.51
2. 5.06
3. 5.05
4. 4.68
5. 4.46
6. 4.18
